Tested on: MS2 coat protein
Test: apparent KD of MS2 coat protein; designed switch direction (-1 OFF switch, 1 ON switch): -1; higher = weaker reporter binding
Conditions: input ligand: none
Entries and their apparent KD of MS2 coat protein
Quick note: give the figure in nM, leave out the unit.

PRIMARY_SEQUENCE: CCAAGUCCAUAGGAUAUCGACCAGUCCUCUGGAUGAGAAGGAUGAACUUGAGGAUCACCCAAGUGGCCUAAUAC [Eddilesove] (Eterna round: R97, puzzle: Exclusion 6)
STUDY_SYSTEM: MS2 coat protein
PARAMETER: apparent KD of MS2 coat protein
OBSERVED_VALUE: 23.9

apparent KD of MS2 coat protein reading for UUCAUGUAAGGAUAUCGUGCAAGUUUCAAAAGAGGCUUGUGCGAGAAGGUACAUGAGGAUCACCCAUGUAGGUU [Omei Ex4 B9] (Eterna round: R97, puzzle: Exclusion 4) : 754

apparent KD of MS2 coat protein reading for CACCUGAAGAGAGGAUAUGAUACAUGAGGAUCACCCAUGUAAUAAAUGAGAAUUUCGAAUGUAAUUCAGAAGGCUCAAUAAGGC [Ostricism 94 - Jieux - Exclusion NG 2] (Eterna round: R96, puzzle: Exclusion NG 2) : 52

apparent KD of MS2 coat protein reading for GCGAGCAGACGGAGAUCCAACAUGAGGAUCACCCAUGUCUCGCAAGCUUUUUGCUUGUCUUAUCCUCCUCUGUUUAG [Design #8] (Eterna round: R97, puzzle: Sensor, turn-off variant 1) : 80.4

apparent KD of MS2 coat protein reading for AGAAGUGCCGAGGAUAUCCAGGCAAUCUCGUUCGGAGAAGGCGGCACUUGAGGAUCACCCAAGUGCUCCAAAAG [Essoatxe] (Eterna round: R97, puzzle: Exclusion 6) : 18.9

apparent KD of MS2 coat protein reading for UUGUUAUGUGUAGGAUAUGCGUAUUAUUAUUAUGCAGAAGGACAUGAGGAUCACCCAUGUGUAUUAUUAUUAUAUAUUAUAUAU [Title] (Eterna round: R96, puzzle: Exclusion NG 1) : 22

apparent KD of MS2 coat protein reading for GCCGAAAAUGUGAGGAUAUACCUAUGGAUACAUAGGUAGAAGGCACAUGAGGAUCACCCAUGUCUAAUAACGGC [Eli bmx4 4.26] (Eterna round: R97, puzzle: Brourd's mod of Exclusion 4) : 212

apparent KD of MS2 coat protein reading for ACAAGCUAAGUGCUCGGUCCGGGAGACACGUGAUCAGCGACAUGAGGAUCACCCAUGUAAUAGGAGCUUAAAACGUU [solution 46] (Eterna round: R96, puzzle: Sensor v2, turn-off variant 2) : 19.7

apparent KD of MS2 coat protein reading for AGAUUACGUUAGGAUAUCCGGCCUGACGAGGAUGGAGAAGGAGCGACAUGAGGAUCACCCAUGUGUGGCACUCC [Eternabot (L1) Solution 76] (Eterna round: R97, puzzle: Exclusion 6) : 18.3

apparent KD of MS2 coat protein reading for AAUUAAGCAAGCAGAUCCCACAUGAGGAUCACCCAUGUGCUCGUCUUAUAAGGUACUGUGACGAAAGUCACGGUACC [Mat - Sensor, turn-off var - Eli Mod - D72] (Eterna round: R97, puzzle: Sensor, turn-off variant 1) : 120

apparent KD of MS2 coat protein reading for ACAAGCUUGUAAUGAUUGAACAUGAGGAUCACCCAUGUAAAUGGAAGAACCAAUUUGAUAAGAUAUACUCGUCUUAU [JR_STOV1_Sub007] (Eterna round: R97, puzzle: Sensor, turn-off variant 1) : 59.1

apparent KD of MS2 coat protein reading for CUAAAUCAUGUAGGAUAUGCGUGGCGAAGCUAUGCAGAAGGACAUGAGGAUCACCCAUGUGCUUCCGUCUGCGUACAGACGGAA [JL ENG1 1.17] (Eterna round: R96, puzzle: Exclusion NG 1) : 255

apparent KD of MS2 coat protein reading for GAUGGCUUAGGAUAUACAUAGAAGAAUUGAACUUGGAUUAUACAUGAGGAUCACCCAUGUAGAAGGAGGUCAUC [ExGluten 4 - Jieux - Exclusion 2] (Eterna round: R97, puzzle: Exclusion 2) : 29.1

apparent KD of MS2 coat protein reading for AAGCGGUGAGGAUAUACAUGAGGAUCACCCAUGUGUAUGCAGAGGGCGCGGUGUUGGUGUAGAAGGCACUGGGA [EX3 B.10] (Eterna round: R97, puzzle: Exclusion 3) : 19.4

apparent KD of MS2 coat protein reading for GCAGGUCGAGGAUAUACAUGAGGAUCACCCAUGUGGUCACGUGACGAUAGUCACGAAUGUAGAAGGUGACCUGC [E3/3-B2] (Eterna round: R97, puzzle: Exclusion 3) : 207

apparent KD of MS2 coat protein reading for UACAUGAGGAUCACCCAUGUUUUGUCGUGUAUGGUAUUUAUCUAGGAUAUCAUAUUAUUUAGUUAUGAGAAGGAGAAUAUUAAU [JMF's solution 80] (Eterna round: R96, puzzle: Exclusion NG 3) : 19.3

apparent KD of MS2 coat protein reading for UAUUUACAUGAGGAUCACCCAUGUCAGGAUAUGCGUCGAUCGUCGAAAGACGAUAGCCGCAGAAGGGACAAUAU [LRO-Excl01-20 mod derived from EliFisker 4.24] (Eterna round: R97, puzzle: Exclusion 1) : 83.1

apparent KD of MS2 coat protein reading for GUGGGUUACAUGAGGAUCACCCAUGUAGAGUGGGAAGAGAGAUAGGAUAUGAUGUGAGAAUCAUAUCAGAAGGAUCGAGACUCG [AK ExNG3-2.3] (Eterna round: R96, puzzle: Exclusion NG 3) : 354

---

System: MS2 coat protein
Assay: apparent KD of MS2 coat protein; designed switch direction (-1 OFF switch, 1 ON switch): 1; higher = weaker reporter binding
Conditions: Eterna round: R95; input ligand: none
PARAMETER: apparent KD of MS2 coat protein (µM)
Quick note: give the figure in µM, leave out the unit.

// solved cases for apparent KD of MS2 coat protein follow
PRIMARY_SEQUENCE: AACAAUCUAUCUGAGGAUAUCAUGAUAUAAACAUGAGGAUCACCCAUGUGCAGGAAAACUGCAUAUGAGAAGGCAGAUAGAUUGA [salish99_ss2_r3_031] (puzzle: Same State 2)
PARAMETER: apparent KD of MS2 coat protein
OBSERVED_VALUE: 0.118
--
PRIMARY_SEQUENCE: AGUCCAGCCUGAGCUGGACAAAAGCAUGUACAUGAGGAUCACCCAUGUUCAUGUACAGGCUUUUUGCUCGUCUUAAA [Zipper 52 - 7] (puzzle: Sensor for hsa-mir-208a)
PARAMETER: apparent KD of MS2 coat protein
OBSERVED_VALUE: 0.488
--
PRIMARY_SEQUENCE: UGGAUCUAGGCUUGCCUGGGUCCAUGUUGACAUGAGGAUCACCCAUGUGUAUUUUAUAAGCUUUUUGUUUGUCAACA [JL A Humble Attempt mod 7] (puzzle: Sensor for hsa-mir-208a)
PARAMETER: apparent KD of MS2 coat protein
OBSERVED_VALUE: 0.0376
--
PRIMARY_SEQUENCE: GUUAAACAUGAGGAUCACCCAUGUCAAUGUAGUCGAGGAUAUGGGCAGCUAUGAGGCGUACUAGAAGGCGAUGAGU [Mat - Same State 1 - Mod of JL - D14] (puzzle: Same State 1)
PARAMETER: apparent KD of MS2 coat protein
OBSERVED_VALUE: 0.15

apparent KD of MS2 coat protein reading for GAGUAGGACUUACAGGAUAUAUGGAGGUUGACAUGAGGAUCACCCAUGUCUGAGUUGAGAGGAGGAUAGAAGGGUAUGGGAGGCG [JR_SS2_Sub030] (puzzle: Same State 2) : 0.0224

---

System: K4 kissing-loop RNA reporter;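 also: bound reporter read as fluorescence of individual clusters on recovered sequencing chips by microscopy, with normalized cluster intensities fitted with a binding model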
Experiment: apparent KD of K4 kissing-loop reporter; higher = weaker reporter binding
Conditions: Eterna round: R107; input ligand: tryptophan 2.4 mM
Entries and their apparent KD of K4 kissing-loop reporter
Quick note: give the figure in nM, leave out the unit.

Entry AAUGUGCAGGGAAGGAGCGUAGUCCAGUGAUGUUGGAGUUAAAUACCAGUGAUGUUGGUUAUACAGGUAGGUCGCCCUAAAGCGC [Exclusion Arginine B Gf 5] , K4 kissing-loop RNA reporter data, apparent KD of K4 kissing-loop reporter value: 71

Entry CACUCGGUAUCAGAUACCAGACUAUCGAUACCGAGUGUAUCGGGUAGUGAUGUUACCAUAGUCCCUUGGCAGCUGAUAUUGCAUA [Theo B SS t9b] , K4 kissing-loop RNA reporter data, apparent KD of K4 kissing-loop reporter value: 59.2

---

System: MS2 coat protein
Assay: apparent KD of MS2 coat protein; higher = weaker reporter binding
Conditions: Eterna round: R107; input ligand: theophylline 20 uM
Entries are grouped by apparent KD of MS2 coat protein into these classes: low bin: < 20 nM; mid bin: ≥ 20 nM and < 100 nM; high bin: ≥ 100 nM

PRIMARY_SEQUENCE: GGCAAAAGGUCGGCCGCCACUGUAGGAUGUGUUCUUUCACAUGAGGAUCACCCAUGUUGUUAUUAUAGGACCGGGAUUUUAGGAC [39MS split4]
STUDY_SYSTEM: MS2 coat protein
QUALITATIVE_LABEL: mid bin
//
PRIMARY_SEQUENCE: ACGAGACGUCUGGAUACCAGCCCAGCGAUAAACAUGAGGAUCACCCAUGUCAAACCACCCGGCCCUUGGCAGCCACGUACCUCAC [theeternabot_sameState_MS2_Theo_B_10]
STUDY_SYSTEM: MS2 coat protein
QUALITATIVE_LABEL: low bin
//
PRIMARY_SEQUENCE: CUAUAUGGAAACAUAUAGAAGCGAAAGCAGCGAGGACCGGUACGGCCGCCACUCGCAGAGUGGUGGACAUGAGGAUCACCCAUGU [Design 2]
STUDY_SYSTEM: MS2 coat protein
QUALITATIVE_LABEL: high bin
//
PRIMARY_SEQUENCE: UGUGCAGGAUGUGUAAAAGGUCUUGGGCAUCGAGGACCGGUACGGCCGCCACUCGGCUGUACAUGAGGAUCACCCAUGUCAGGGU [#1 Same State - Tryptophan A Attempt #21 (HarryS)]
STUDY_SYSTEM: MS2 coat protein
QUALITATIVE_LABEL: high bin

Into which category would you place GGCGCUGCGUCGGCCGCCACUAGCGGGUAAUGGGUGUACAUGAGGAUCACCCAUGUAAUAUGGCCUAGGACCGGGACGUGGCGCC [Moose] ?
high bin

Into which category would you place UGUAUGUGAUCUGAUACCAGUCCAACUGGUAAACCAUGAGGAUCACCCAUGGAAAAUUGGGACCCUUGGCAGCAGAUCGCAUACU ?
high bin

Into which category would you place AGACAUGAGGAUCACCCAUGUAGUACGGAUACCAGAUCCAGAUGCGUCCCUUGGCAGCUGUAGUACAGCGUUACAUCGCUCGUAG [Exclusion - Theophylline A (Freestyle 24)] ?
mid bin
